Test: Metabolic stability in rat liver microsomes assessed as parent compound remaining after 10 mins
Type: ADME, microsome
Details: liver microsomes, read-out: Stability
recorded metric: remaining at 10 min (%)

CC(C)(C)OC(=O)NCCS(=O)(=O)NC(=O)c1ccc(Nc2nc(NC3(c4ccc(Cl)cc4)CC3)nc(OCC(F)(F)F)n2)cc1 93
O=C(NS(=O)(=O)c1ccc(F)cc1)c1ccc(Nc2nc(NC3(c4ccc(Cl)cc4)CC3)nc(OCC(F)(F)F)n2)cc1 99
O=C(NS(=O)(=O)CCNCc1ccccc1)c1ccc(Nc2nc(NC3(c4ccc(Cl)cc4)CC3)nc(OCC(F)(F)F)n2)cc1 100
CN(C)S(=O)(=O)NC(=O)c1ccc(Nc2nc(NC3(c4ccc(Cl)cc4)CC3)nc(OCC(F)(F)F)n2)cc1 76

* * *

Test: Metabolic stability in human liver microsomes assessed as parent compound remaining after 10 mins
Type: ADME, microsome
Details: read-out: Stability
recorded metric: remaining at 10 min (%)

O=C(NS(=O)(=O)CCN1CCOCC1)c1ccc(Nc2nc(NC3(c4ccc(Cl)cc4)CC3)nc(OCC(F)(F)F)n2)cc1 78
O=C(NS(=O)(=O)c1ccc(F)cc1)c1ccc(Nc2nc(NC3(c4ccc(Cl)cc4)CC3)nc(OCC(F)(F)F)n2)cc1 100
CNC(=O)NCCS(=O)(=O)NC(=O)c1ccc(Nc2nc(NC3(c4ccc(Cl)cc4)CC3)nc(OCC(F)(F)F)n2)cc1 97
O=C(NS(=O)(=O)c1ccccc1)c1ccc(Nc2nc(NC3(c4ccc(Cl)cc4)CC3)nc(OCC(F)(F)F)n2)cc1 100
CCCCCNc1nc(Nc2ccc([N+](=O)[O-])cc2)nc(OCC(F)(F)F)n1 74
O=C(NS(=O)(=O)CCNCc1ccccc1)c1ccc(Nc2nc(NC3(c4ccc(Cl)cc4)CC3)nc(OCC(F)(F)F)n2)cc1 99
CC(C)NCCS(=O)(=O)NC(=O)c1ccc(Nc2nc(NC3(c4ccc(Cl)cc4)CC3)nc(OCC(F)(F)F)n2)cc1 89
CC(C)(C)CNCCS(=O)(=O)NC(=O)c1ccc(Nc2nc(NC3(c4ccc(Cl)cc4)CC3)nc(OCC(F)(F)F)n2)cc1 89
CCN(CC)CCS(=O)(=O)NC(=O)c1ccc(Nc2nc(NC3(c4ccc(Cl)cc4)CC3)nc(OCC(F)(F)F)n2)cc1 99
CC(C)C(=O)NCCS(=O)(=O)NC(=O)c1ccc(Nc2nc(NC3(c4ccc(Cl)cc4)CC3)nc(OCC(F)(F)F)n2)cc1 86
NCCS(=O)(=O)NC(=O)c1ccc(Nc2nc(NC3(c4ccc(Cl)cc4)CC3)nc(OCC(F)(F)F)n2)cc1 100
O=C(NS(=O)(=O)CCN1CCCC1)c1ccc(Nc2nc(NC3(c4ccc(Cl)cc4)CC3)nc(OCC(F)(F)F)n2)cc1 96
CC(C)OC(=O)NCCS(=O)(=O)NC(=O)c1ccc(Nc2nc(NC3(c4ccc(Cl)cc4)CC3)nc(OCC(F)(F)F)n2)cc1 100
CC(C)NC(=O)NCCS(=O)(=O)NC(=O)c1ccc(Nc2nc(NC3(c4ccc(Cl)cc4)CC3)nc(OCC(F)(F)F)n2)cc1 100
Cc1ccccc1S(=O)(=O)NC(=O)c1ccc(Nc2nc(NC3(c4ccc(Cl)cc4)CC3)nc(OCC(F)(F)F)n2)cc1 100
COC(=O)NCCS(=O)(=O)NC(=O)c1ccc(Nc2nc(NC3(c4ccc(Cl)cc4)CC3)nc(OCC(F)(F)F)n2)cc1 90
CC(=O)NCCS(=O)(=O)NC(=O)c1ccc(Nc2nc(NC3(c4ccc(Cl)cc4)CC3)nc(OCC(F)(F)F)n2)cc1 95
CN(C)S(=O)(=O)NC(=O)c1ccc(Nc2nc(NC3(c4ccc(Cl)cc4)CC3)nc(OCC(F)(F)F)n2)cc1 86
O=C(O)c1ccc(Nc2nc(NC3(c4ccc(Cl)cc4)CC3)nc(OCC(F)(F)F)n2)cc1 89
CC(C)(C)OC(=O)NCCS(=O)(=O)NC(=O)c1ccc(Nc2nc(NC3(c4ccc(Cl)cc4)CC3)nc(OCC(F)(F)F)n2)cc1 92
O=C(NS(=O)(=O)CCNC(=O)C1CC1)c1ccc(Nc2nc(NC3(c4ccc(Cl)cc4)CC3)nc(OCC(F)(F)F)n2)cc1 90
CS(=O)(=O)NC(=O)c1ccc(Nc2nc(NC3(c4ccc(Cl)cc4)CC3)nc(OCC(F)(F)F)n2)cc1 100
CCS(=O)(=O)NC(=O)c1ccc(Nc2nc(NC3(c4ccc(Cl)cc4)CC3)nc(OCC(F)(F)F)n2)cc1 100
O=C(NS(=O)(=O)C1CC1)c1ccc(Nc2nc(NC3(c4ccc(Cl)cc4)CC3)nc(OCC(F)(F)F)n2)cc1 100
CN(C)CCS(=O)(=O)NC(=O)c1ccc(Nc2nc(NC3(c4ccc(Cl)cc4)CC3)nc(OCC(F)(F)F)n2)cc1 89
CC(C)S(=O)(=O)NC(=O)c1ccc(Nc2nc(NC3(c4ccc(Cl)cc4)CC3)nc(OCC(F)(F)F)n2)cc1 100
CC(C)(C)NC(=O)NCCS(=O)(=O)NC(=O)c1ccc(Nc2nc(NC3(c4ccc(Cl)cc4)CC3)nc(OCC(F)(F)F)n2)cc1 96

* * *

Experiment: Plasma half life in rat at 2 mg/kg, iv
Format: ADME, organism-based
recorded metric: half-life (h)
Entry rule: numbers only, all in h.

Give half-life for CC(C)(C)CNCCS(=O)(=O)NC(=O)c1ccc(Nc2nc(NC3(c4ccc(Cl)cc4)CC3)nc(OCC(F)(F)F)n2)cc1 2.6

* * *

Experiment: Metabolic stability in rat liver microsomes assessed as parent compound remaining after 10 mins
Assay type: ADME, microsome
Conditions: liver microsomes, read-out: Stability
recorded metric: remaining at 10 min (%)

CCN(CC)CCS(=O)(=O)NC(=O)c1ccc(Nc2nc(NC3(c4ccc(Cl)cc4)CC3)nc(OCC(F)(F)F)n2)cc1 98
O=C(O)c1ccc(Nc2nc(NC3(c4ccc(Cl)cc4)CC3)nc(OCC(F)(F)F)n2)cc1 99
CN(C)CCS(=O)(=O)NC(=O)c1ccc(Nc2nc(NC3(c4ccc(Cl)cc4)CC3)nc(OCC(F)(F)F)n2)cc1 100
COC(=O)NCCS(=O)(=O)NC(=O)c1ccc(Nc2nc(NC3(c4ccc(Cl)cc4)CC3)nc(OCC(F)(F)F)n2)cc1 100
CC(C)C(=O)NCCS(=O)(=O)NC(=O)c1ccc(Nc2nc(NC3(c4ccc(Cl)cc4)CC3)nc(OCC(F)(F)F)n2)cc1 84
CC(C)(C)CNCCS(=O)(=O)NC(=O)c1ccc(Nc2nc(NC3(c4ccc(Cl)cc4)CC3)nc(OCC(F)(F)F)n2)cc1 90
CNC(=O)NCCS(=O)(=O)NC(=O)c1ccc(Nc2nc(NC3(c4ccc(Cl)cc4)CC3)nc(OCC(F)(F)F)n2)cc1 100
Cc1ccccc1S(=O)(=O)NC(=O)c1ccc(Nc2nc(NC3(c4ccc(Cl)cc4)CC3)nc(OCC(F)(F)F)n2)cc1 100
